Experiment: Hemolytic activity in male Sprague-Dawley rat erythrocytes at 25 uM incubated for 1 hr by absorbance based method relative to control
Format: toxicity, cell-based, Erythrocyte
Conditions: read-out: Activity
Non-standard residues stand in square brackets, D forms with d. Residues, ends and D or L forms follow the SMILES beside them. Nspe = C[C@H](NCC(=O)O)c1ccccc1; Nphe = O=C(O)CNCc1ccccc1; Nlys = NCCCCNCC(=O)O
property_name: hemolysis at 1 h, 25 µM (%)
Respond numerically; units are % and should not be typed.

Request: Supply recorded hemolysis at 1 h, 25 µM for C[C@@H](c1ccccc1)N(CC(N)=O)C(=O)CN(CCCCN)C(=O)CN(CCCCN)C(=O)CN(C(=O)CN(C(=O)CN(CCCCN)C(=O)CN(C(=O)CN(C(=O)CN(CCCCN)C(=O)CN(CCc1c[nH]c2ccccc12)C(=O)CN(CCc1c[nH]c2ccccc12)C(=O)CNCCCCN)[C@@H](C)c1ccccc1)[C@@H](C)c1ccccc1)[C@@H](C)c1ccccc1)[C@@H](C)c1ccccc1 here.
Response: 4.95

Request: Supply recorded hemolysis at 1 h, 25 µM for C[C@@H](c1ccccc1)N(CC(=O)N(CCCCN)CC(=O)N(CC(=O)N(CC(=O)N(CCCCN)CC(=O)N(CC(=O)N(CC(=O)N(CCCCN)CC(=O)N(CC(=O)N(CC(N)=O)Cc1ccccc1)Cc1ccccc1)Cc1ccccc1)Cc1ccccc1)Cc1ccccc1)Cc1ccccc1)C(=O)CN(Cc1ccccc1)C(=O)CN(CCCCN)C(=O)[C@H](Cc1c[nH]cn1)NC(=O)CNC(=O)CN (H-GGH[Nlys][Nphe][Nspe][Nlys][Nphe][Nphe][Nlys][Nphe][Nphe][Nlys][Nphe][Nphe]-NH2) here.
Response: -0.71

Request: Supply recorded hemolysis at 1 h, 25 µM for C[C@@H](c1ccccc1)N(CC(=O)N(CCCCN)CC(=O)N(CC(=O)N(CC(=O)N(CCCCN)CC(=O)N(CC(=O)N(CC(N)=O)Cc1ccccc1)Cc1ccccc1)[C@@H](C)c1ccccc1)[C@@H](C)c1ccccc1)C(=O)CN(C(=O)CN(CCCCN)C(=O)CN(Cc1ccccc1)C(=O)CN(Cc1ccccc1)C(=O)CN(CCCCN)C(=O)[C@H](Cc1c[nH]cn1)NC(=O)CNC(=O)CN)[C@@H](C)c1ccccc1 (H-GGH[Nlys][Nphe][Nphe][Nlys][Nspe][Nspe][Nlys][Nspe][Nspe][Nlys][Nphe][Nphe]-NH2) here.
Response: 3.01

---

Assay: Hemolytic activity in male Sprague-Dawley rat erythrocytes at 50 uM incubated for 1 hr by absorbance based method relative to control
Assay type: toxicity, cell-based, Erythrocyte
Conditions: read-out: Activity
Non-standard residues stand in square brackets, D forms with d. Residues, ends and D or L forms follow the SMILES beside them. *: point of attachment. X1 = NC(=O)[C@H](Cc1c[nH]cn1)NC(=O)CNC(=O)[C@@H](N)CN*; Gly(N(CH2)2(3-indolyl)) = O=C(O)CNCCc1c[nH]c2ccccc12; Nspe = C[C@H](NCC(=O)O)c1ccccc1; Nphe = O=C(O)CNCc1ccccc1; Nlys = NCCCCNCC(=O)O
property_name: hemolysis at 1 h, 50 µM
Kindly report the value followed by its unit.

For orientation, consider the following solved cases.
INSERT INTO measurements (molecule, result) VALUES
  ('C[C@@H](c1ccccc1)N(CC(N)=O)C(=O)CN(C(=O)CN(CCCCN)C(=O)CN(C(=O)CN(C(=O)CN(CCCCN)C(=O)CN(C(=O)CN(C(=O)CN(CCCCN)C(=O)CN(CCc1c[nH]c2ccccc12)C(=O)CN(CCc1c[nH]c2ccccc12)C(=O)CNCCCCN)[C@@H](C)c1ccccc1)[C@@H](C)c1ccccc1)[C@@H](C)c1ccccc1)[C@@H](C)c1ccccc1)[C@@H](C)c1ccccc1', '55.3%'),
  ('C[C@@H](c1ccccc1)N(CC(=O)N(CC(=O)N(CCCCN)CC(=O)N(CC(=O)N(CC(=O)N(CCCCN)CC(=O)N(CC(=O)N(CC(=O)N(CCCCN)CC(=O)N(CC(=O)N(CC(N)=O)Cc1ccccc1)Cc1ccccc1)Cc1ccccc1)Cc1ccccc1)Cc1ccccc1)Cc1ccccc1)Cc1ccccc1)C(=O)CN(CCCCN)C(=O)CNC(=O)[C@H](Cc1c[nH]cn1)NC(=O)CNC(=O)CN (H-GGHG[Nlys][Nspe][Nphe][Nlys][Nphe][Nphe][Nlys][Nphe][Nphe][Nlys][Nphe][Nphe]-NH2)', '0.18%'),
  ('C[C@@H](c1ccccc1)N(CC(=O)NCC(=O)NC[C@H](N)C(=O)NCC(=O)N[C@@H](Cc1c[nH]cn1)C(N)=O)C(=O)CN(CCCCN)C(=O)CN(C(=O)CN(C(=O)CN(CCCCN)C(=O)CN(C(=O)CN(C(=O)CN(CCCCN)C(=O)CN(C(=O)CN(C(=O)CNCCCCN)[C@@H](C)c1ccccc1)[C@@H](C)c1ccccc1)[C@@H](C)c1ccccc1)[C@@H](C)c1ccccc1)[C@@H](C)c1ccccc1)[C@@H](C)c1ccccc1 (H-[Nlys][Nspe][Nspe][Nlys][Nspe][Nspe][Nlys][Nspe][Nspe][Nlys][Nspe]G-X1)', '8.79%'),
  ('C[C@@H](c1ccccc1)N(CC(=O)N(CCCCN)CC(=O)N(CC(=O)N(CC(=O)N(CCCCN)CC(=O)N(CC(=O)N(CC(=O)N(CCCCN)CC(=O)N(CC(=O)N(CC(N)=O)Cc1ccccc1)Cc1ccccc1)Cc1ccccc1)Cc1ccccc1)Cc1ccccc1)Cc1ccccc1)C(=O)CN(Cc1ccccc1)C(=O)CNCCCCN (H-[Nlys][Nphe][Nspe][Nlys][Nphe][Nphe][Nlys][Nphe][Nphe][Nlys][Nphe][Nphe]-NH2)', '3.75%'),
  ('C[C@@H](c1ccccc1)N(CC(=O)N(CCCCN)CC(=O)N(CCc1c[nH]c2ccccc12)CC(=O)N(CCc1c[nH]c2ccccc12)CC(N)=O)C(=O)CN(CCCCN)C(=O)CN(CCCCN)C(=O)CN(C(=O)CN(C(=O)CN(CCCCN)C(=O)CN(C(=O)CN(C(=O)CNCCCCN)[C@@H](C)c1ccccc1)[C@@H](C)c1ccccc1)[C@@H](C)c1ccccc1)[C@@H](C)c1ccccc1 (H-[Nlys][Nspe][Nspe][Nlys][Nspe][Nspe][Nlys][Nlys][Nspe][Nlys][Gly(N(CH2)2(3-indolyl))][Gly(N(CH2)2(3-indolyl))]-NH2)', '7.85%');

Request: Supply recorded hemolysis at 1 h, 50 µM for C[C@@H](c1ccccc1)N(CC(N)=O)C(=O)CN(CCCCN)C(=O)CN(C(=O)CN(C(=O)CN(CCCCN)C(=O)CN(C(=O)CN(C(=O)CN(CCCCN)C(=O)CN(C(=O)CN(C(=O)CN(CCCCN)C(=O)CNC(=O)[C@H](Cc1c[nH]cn1)NC(=O)CNC(=O)CN)[C@@H](C)c1ccccc1)[C@@H](C)c1ccccc1)[C@@H](C)c1ccccc1)[C@@H](C)c1ccccc1)[C@@H](C)c1ccccc1)[C@@H](C)c1ccccc1 (H-GGHG[Nlys][Nspe][Nspe][Nlys][Nspe][Nspe][Nlys][Nspe][Nspe][Nlys][Nspe]-NH2) here.
Response: 22.4%

Request: Supply recorded hemolysis at 1 h, 50 µM for C[C@@H](c1ccccc1)N(CC(=O)N(CCCCN)CC(=O)N(CC(=O)N(CC(=O)N(CCCCN)CC(=O)N(CC(=O)N(CC(=O)N(CCCCN)CC(=O)N(CCc1c[nH]c2ccccc12)CC(=O)N(CCc1c[nH]c2ccccc12)CC(N)=O)[C@@H](C)c1ccccc1)[C@@H](C)c1ccccc1)[C@@H](C)c1ccccc1)[C@@H](C)c1ccccc1)C(=O)CN(C(=O)CNCCCCN)[C@@H](C)c1ccccc1 (H-[Nlys][Nspe][Nspe][Nlys][Nspe][Nspe][Nlys][Nspe][Nspe][Nlys][Gly(N(CH2)2(3-indolyl))][Gly(N(CH2)2(3-indolyl))]-NH2) here.
Response: 50.7%

Request: Supply recorded hemolysis at 1 h, 50 µM for C[C@@H](c1ccccc1)N(CC(=O)N(CCCCN)CC(=O)N(CC(=O)N(CC(=O)N(CCCCN)CC(=O)N(CC(=O)N(CC(=O)N(CCCCN)CC(=O)N(CCc1c[nH]c2ccccc12)CC(=O)N(CCc1c[nH]c2ccccc12)CC(N)=O)Cc1ccccc1)Cc1ccccc1)Cc1ccccc1)Cc1ccccc1)C(=O)CN(Cc1ccccc1)C(=O)CN(CCCCN)C(=O)[C@H](Cc1c[nH]cn1)NC(=O)CNC(=O)CN (H-GGH[Nlys][Nphe][Nspe][Nlys][Nphe][Nphe][Nlys][Nphe][Nphe][Nlys][Gly(N(CH2)2(3-indolyl))][Gly(N(CH2)2(3-indolyl))]-NH2) here.
Response: 23.9%

Request: Supply recorded hemolysis at 1 h, 50 µM for C[C@@H](c1ccccc1)N(CC(N)=O)C(=O)CN(CCCCN)C(=O)CN(C(=O)CN(C(=O)CN(CCCCN)C(=O)CN(C(=O)CN(C(=O)CN(CCCCN)C(=O)CN(C(=O)CN(C(=O)CNCCCCN)[C@@H](C)c1ccccc1)[C@@H](C)c1ccccc1)[C@@H](C)c1ccccc1)[C@@H](C)c1ccccc1)[C@@H](C)c1ccccc1)[C@@H](C)c1ccccc1 (H-[Nlys][Nspe][Nspe][Nlys][Nspe][Nspe][Nlys][Nspe][Nspe][Nlys][Nspe]-NH2) here.
Response: 97.6%
